experimental-details: physchem
assay-context: pH 6.8, aqueous buffer
quantity: solubility (mg/mL)
Please give a number only; it is taken to be in mg/mL.

What value of measured solubility is listed for O=C(Cc1ccccc1)N[C@@H]1C(=O)N2C(C(=O)O)=C(O)NC[C@H]12 (racemic) [(±)-10] ?
35

---

Below: a set of entries, each annotated with reported solubility.
experimental-details: physchem
assay-context: water
Report the value in mg/mL with no unit label.

[
  {
    "compound": "CS(=O)(=O)OC1=C(C(=O)O)N2C(=O)[C@@H](NC(=O)Cc3ccccc3)[C@H]2CN1 (racemic) [(±)-3]",
    "solubility (mg/mL)": 21
  }
]

Continue with the compound presented below.
So what does the record say about solubility for O=C(Cc1ccccc1)N[C@@H]1C(=O)N2C(C(=O)O)=C(OS(=O)(=O)C(F)(F)F)NC[C@H]12 (racemic) [(±)-4] ?
27
